System: A498 renal
assay_overview: NCI-60 one-dose screen, 48 h
cond: 10 µM unless noted
The panel holds about 83,000 compounds, 20% with a hit somewhere; the sample as a whole holds those more often. Active and inactive are the calls of the source. Rule for the calls: active = growth percent below 10; inactive = the rest.
Classes used: t (active), f (inactive)

compound	discrete_label
CC1O[C@@H](OC2[C@H](OC(=O)/C=C/c3ccc(O)c(O)c3)C(COC3O[C@H](C)C(O)C(O)[C@@H]3O)O[C@@H](OCCc3ccc(O)c(O)c3)[C@H]2O)[C@@H](O)C(O)[C@H]1O (some centres undefined)	f
O=C(N=c1oc2ccccc2cc1-c1cc2ccccc2[nH]1)c1ccc(Cl)cc1	f
O=C1/C(=C2/C=Nc3ccccc32)N(O)c2ccccc21	f
COc1ccc2c(c1)CCCN2c1c2ccccc2nc2ccccc12	t
CCN(CC)c1ccc(C(=O)c2ccc(N(CC)CC)cc2)cc1	f
O=C1/C(=C/c2ccccc2)CCc2nc3ccccc3c(/C=C/c3ccc(Cl)cc3)c21	f
CCC(CO)Nc1nc2ccc(Cl)cc2c2ccccc12 (centres undefined)	t
COc1cc(/C=C/C(=O)c2c(C)nc3ccccc3c2/C=C/c2ccc(C)cc2)cc(OC)c1OC	f
Cc1ccc2nc(NC(=O)CSc3nc(-c4ccccc4)c(C#N)c(=O)n3Cc3ccccc3)sc2c1	f
C#CCOc1nc(C)cc(C)c1C#N	f
CN(C)c1ccc(/C=C/C(=O)c2cccc(Nc3nc(Nc4ccccc4)nc(Nc4ccccc4)n3)c2)cc1	f
COc1ccc(-c2cc(-c3cc(OC)ccc3OC)nc(SCC(=O)c3ccccc3)c2C#N)cc1	f
CNC(=O)c1cc(Oc2ccc3nc(Nc4ccc(Cl)c(C(F)(F)F)c4)ccc3c2)ccn1	f
O=C(CSc1nnc(-c2ccc(NC(=O)c3cccnc3)cc2)o1)Nc1cccc(Br)c1	f
O=c1c2c3c(sc2n2c(-c4cn(-c5ccccc5)nc4-c4ccc(Cl)cc4)nnc2n1Cc1ccccc1)CCCC3	f
COc1ccc2c(c1)O/C(=C\c1cccc(OCC(=O)Nc3nc(C)c(C)s3)c1)C2=O	f
Cc1c2c(c(C)c3c1oc1cc(O)ccc13)C(=O)N(CCN1CCCCC1)C2=O	f
O=c1cc(-c2ccc(Cl)cc2)[nH]c2ccccc12	f
COC(=O)[C@]12CC[C@@H](C)[C@H](C)[C@@H]1C1=CC[C@@H]3[C@@]4(C)C(C=O)=C[C@@](C)(COC(=O)c5ccco5)C4=CC[C@@]3(C)[C@]1(C)CC2	f

====

System: SW-620 colon
assay_overview: NCI-60 one-dose screen, 48 h
cond: 10 µM unless noted
This is part of a sample that, as a whole, favours compounds with a hit. Of some 83,000 tested, about 20% had one in any assay. Activity calls are given as the source filed them. How the source made its calls: active means growth percent below 10; inactive means the rest.
Classes used: TRUE (active), FALSE (inactive)

>>> print(df.to_string())
                                    molecule  discrete_label
 0  COc1ccc(-c2[nH]c(=S)n(C(CC3(C)NCC(=O)N3n3c(-c4ccccc4)cc(C)nc3=S)c3ccc(OC)cc3)c(=O)c2Br)cc1 (stereo unspecified)           FALSE
 1  COc1ccc2[nH]c(O)c(/C=c3/cc4c(c(-c5ccc(F)c(OC)c5)n3)=Nc3ccccc3-4)c2c1            TRUE
 2  O=C1/C(=C\c2c[nH]c3ccccc23)c2ccccc2N1c1c(Cl)cccc1Cl            TRUE
 3  COc1ccc(-c2nc(SCC(=O)Nc3nc(-c4ccccc4)cs3)[nH]c(=O)c2C#N)cc1           FALSE
 4  CC1SC(c2ccc(OCc3ccccc3)cc2)N(NC(=O)C(O)(c2ccccc2)c2ccccc2)C1=O (stereo unspecified)           FALSE
 5  CC(=O)N1C(=S)NC(=O)C1Cn1c(-c2ccccc2)nc2ccccc21 (stereo unspecified)           FALSE
 6  O=C(N/N=C/C=C/c1ccc([N+](=O)[O-])o1)c1cc2ccccc2cc1O            TRUE
 7  CC(=O)OC1CCC2(C)C(=CC3C4CCC(=O)C4(C)CCC32)C1 (stereo unspecified)           FALSE
 8                CCn1c(C)nc2cc(C(N)=O)ccc21           FALSE
 9  CC/C=C\C/C=C\C[C@H](O)C/C=C1/C(=O)C=C[C@@H]1C/C=C\CCCC(=O)O           FALSE
10  NNC(=O)c1nc(N)n(-c2ccc(S(N)(=O)=O)cc2)n1           FALSE
11  Cc1cc(NCc2cc(Nc3ccnc4cc(Cl)ccc34)ccc2F)nc(N2CCSCC2)n1            TRUE
12                O=[N+]([O-])c1ccc(OCCO)cc1           FALSE
13  COc1ccc(CNC(=O)C(O)C(Cc2ccccc2)NC(=O)c2[nH]c3ccccc3c(=O)c2C)cc1OC (stereo unspecified)           FALSE
14     Cc1cc(C)c(-c2c(C)cc(C)cc2CBr)c(CBr)c1           FALSE
15                NC1=NCc2nc3ccccc3c(=O)n2C1           FALSE
16    C#Cc1cccc(NC(=O)c2ccc(NC(=O)CCl)cc2)c1            TRUE
17  COc1ccc(C(=O)/C=C/c2c(C(F)(F)F)nc3sccn23)cc1OC           FALSE
18  O=C1Nc2ccccc2/C1=C/c1cn(C(=O)c2ccc(Cl)cc2)c2ccccc12           FALSE
19      O=C(O)c1ccc2c(c1Cl)C(=O)c1ccccc1C2=O           FALSE
20  CC(C)(C)CC(C)(C)Nc1c(-c2ccncc2)nc2cnccn12           FALSE

Ref: PubChem BioAssay (NCI)
